- Test system: A549/ATCC NSCLC
- protocol description: NCI-60 one-dose screen, 48 h (100 = growth as untreated, 0 = no growth, -100 = all killed)
- test parameters: 10 µM unless noted
- Description: Growth inhibition of the A549/ATCC human Non-Small Cell Lung tumor cell line is measured as a screen for anti-cancer activity. Cells are grown in 96 well plates and exposed to the test compound for 48 hours. Compounds are tested at a single concentration, which is 10^-5 M for most compounds. The reported endpoint is percent growth (GI% or GIPRCNT), where numbers from 0 - 100% represent growth inhibition, and numbers from -100% - 0 represent cell death. […]
Compounds without any hit were thinned out: in the full panel of roughly 83,000, 20% have a hit.
measurement kind: growth (%)

> print(dat)
                               smiles.entry  units.label  obs.value
1  COc1ccc(-c2nc3cc(Cl)c(Cl)cc3n2CC(=O)N=Nc2c(O)[nH]c3ccc(Cl)cc23)cc1            %       18.5
2  O=C(Nc1cccc(Cl)c1)Nc1nc2ccc([N+](=O)[O-])cc2s1            %         10
3  C#C[C@]1(O)CC[C@H]2[C@@H]3CC=C4c5sc(C6CC6)nc5CC[C@]4(C)[C@H]3CC[C@@]21C            %       72.5
4  NC(=O)c1c(NC(=O)c2cccc(C(F)(F)F)c2F)sc2c1CCC(=O)C2            %       64.8
5  C=C(C)C(=O)O[C@H]1C[C@@]2(C)OC(=CC2=O)[C@H](C)[C@H](O)[C@H]2OC(=O)C(=C)[C@@H]21            %       94.7

Hey, just so you know, these numbers are from PubChem BioAssay (NCI).
